Cited source: patent US20160264664A1

- target.or.test.system: T1, mouse P2X7 mutant R151A (mouse, UniProt Q9Z1M0 1-595)
- T1 construct: transiently transfected Hek293 cells
- T1 sequence: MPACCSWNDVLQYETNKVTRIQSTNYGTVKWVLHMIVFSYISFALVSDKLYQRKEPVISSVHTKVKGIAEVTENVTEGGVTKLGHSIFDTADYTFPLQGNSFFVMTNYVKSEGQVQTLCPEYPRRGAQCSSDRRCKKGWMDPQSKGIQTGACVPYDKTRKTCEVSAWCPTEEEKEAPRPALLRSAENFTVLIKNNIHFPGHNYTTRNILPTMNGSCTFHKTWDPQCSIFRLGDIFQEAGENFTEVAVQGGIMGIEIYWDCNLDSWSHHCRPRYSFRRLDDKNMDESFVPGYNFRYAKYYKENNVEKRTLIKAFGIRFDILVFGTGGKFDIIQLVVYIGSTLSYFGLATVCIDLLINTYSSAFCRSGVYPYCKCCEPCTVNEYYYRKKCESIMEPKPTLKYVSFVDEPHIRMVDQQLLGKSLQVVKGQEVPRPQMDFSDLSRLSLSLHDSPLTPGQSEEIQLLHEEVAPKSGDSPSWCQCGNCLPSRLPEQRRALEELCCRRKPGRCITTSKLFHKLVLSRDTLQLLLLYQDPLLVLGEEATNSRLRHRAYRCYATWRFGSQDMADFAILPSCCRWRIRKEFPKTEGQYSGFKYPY
- assay.info: flow cytometry, 1 µM Nanobody on transiently transfected Hek293 cells, normalised to Hano43 staining
assay.endpoint: reduction of binding against WT mP2X7

binder: P2X7PMP7H6 (VHH, family 11; on phage or c-myc/His6-tagged in assays) VHH: EVQLVESGGGLVQPGGSLRLSCVVSGSMYRIDNMGWYRQAPGKQRELVATVTRGDITNYADSVKGRFTIGRDNAKNTVYLQMNSLKPADTAVYYCNIDSYIIGAGVRDYWGRGTQVTVSS
reduction of binding against WT mP2X7: > 90%

Next up:
Q) Query (binder): P2X7PMP7E2 (VHH, family 3; on phage or c-myc/His6-tagged in assays) VHH: EVQLVESGGGLVQAGGSLRLSCAAPERTYSMGWFRQAPGKEREFVAGSGWDGIPTRYADSVKGRFTISRDNAKNTVSLQMSGLKPEDTAIYYCATGTSVYHYQYWGQGTQVTVSS ; field requested: reduction of binding against WT mP2X7
A) > 90%
